# credit: ChEMBL document CHEMBL1142431

molecular target: UniProtKB P34972
Sequence (P34972 whole entry): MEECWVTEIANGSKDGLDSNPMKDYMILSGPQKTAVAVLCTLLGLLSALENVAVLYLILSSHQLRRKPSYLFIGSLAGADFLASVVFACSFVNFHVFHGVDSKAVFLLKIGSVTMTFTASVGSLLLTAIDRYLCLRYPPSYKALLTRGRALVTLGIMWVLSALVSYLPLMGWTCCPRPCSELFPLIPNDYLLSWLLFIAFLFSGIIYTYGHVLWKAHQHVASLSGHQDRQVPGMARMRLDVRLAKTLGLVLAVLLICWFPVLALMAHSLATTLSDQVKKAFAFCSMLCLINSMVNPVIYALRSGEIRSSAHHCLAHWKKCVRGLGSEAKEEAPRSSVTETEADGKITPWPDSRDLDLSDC

{"given_smiles": "O=S(=O)(c1ccc2c(c1)OC(c1ccccc1)(c1ccccc1)O2)N1CC=C(c2ccc(F)cc2)CC1", "Ki": "> 10 µM"}

----------
assay: Clearance in human liver microsomes; assay type: ADME, Microsome; conditions: liver microsomes
Label scheme for microsomal CLint: lower than 20 µL/min/mg is 0.0, 20 µL/min/mg and above is 1.0.

{"compound": "O=C(c1cc2c(cc1F)OC(c1ccc(F)cc1F)(c1ccc(F)cc1F)O2)N1CCOCC1", "assigned_label": 1.0}
{"compound": "O=C(c1cc2c(cc1F)OC(c1ccc(F)cc1)(c1ccc(Cl)cc1Cl)O2)N1CCCCC1 (stereo not drawn)", "assigned_label": 1.0}
{"compound": "O=C(c1ccc2c(c1)OC(c1ccc(F)cc1)(c1ccc(Cl)cc1Cl)O2)N1CCOCC1 (stereo not drawn)", "assigned_label": 0.0}
{"compound": "O=C(c1cc2c(cc1F)OC(c1ccccc1)(c1ccccc1)O2)N1CCOCC1", "assigned_label": 1.0}
{"compound": "COc1ccc(C2(c3ccc(Cl)cc3Cl)Oc3cc(F)c(C(=O)N4CCCCC4)cc3O2)cc1 (stereo not drawn)", "assigned_label": 1.0}
{"compound": "O=C(c1cc2c(cc1F)OC(c1ccccc1F)(c1ccc(Cl)cc1Cl)O2)N1CCOCC1 (stereo not drawn)", "assigned_label": 1.0}
{"compound": "O=C(c1cc2c(cc1F)OC(c1ccc(F)cc1F)(c1ccc(F)cc1F)O2)N1CCC(F)(F)CC1", "assigned_label": 0.0}

----------
assay: Clearance in rat liver microsomes; format: ADME, Microsome; settings: liver microsomes
measured_property: log10 microsomal CLint (log10 of the value in µL/min/mg)

{"compound": "O=C(c1cc2c(cc1Cl)OC(c1ccccc1)(c1ccccc1)O2)N1CCOCC1", "observed": 2.59}
{"compound": "O=S(=O)(c1cc2c(cc1F)OC(c1ccc(F)cc1F)(c1ccc(F)cc1F)O2)N1CCC(F)(F)CC1", "observed": 2.46}
{"compound": "O=C(c1ccc2c(c1)OC(c1ccc(F)cc1)(c1ccc(Cl)cc1Cl)O2)N1CCOCC1 (centres undefined)", "observed": 0.60}
{"compound": "O=S(=O)(c1cc2c(cc1F)OC(c1ccc(F)cc1F)(c1ccc(F)cc1F)O2)N1CCOCC1", "observed": 2.17}
{"compound": "O=C(c1cc2c(cc1F)OC(c1ccc(F)cc1)(c1ccc(Cl)cc1Cl)O2)N1CCCCC1 (centres undefined)", "observed": 1.95}
{"compound": "O=C(c1cc2c(cc1F)OC(c1ccc(F)cc1F)(c1ccc(F)cc1F)O2)N1CCCCC1", "observed": 2.09}
{"compound": "O=C(c1ccc2c(c1)OC(c1ccccc1)(c1ccccc1)O2)N1CCCCC1", "observed": 2.83}
{"compound": "O=C(c1cc2c(cc1F)OC(c1ccc(F)cc1)(c1ccc(F)cc1)O2)N1CCCCC1", "observed": 1.91}
{"compound": "O=C(c1cc2c(cc1F)OC(c1ccccc1F)(c1ccc(Cl)cc1Cl)O2)N1CCOCC1 (centres undefined)", "observed": 2.09}

----------
target: Cannabinoid receptor 1 (Homo sapiens); assay: Activity at human CB1R expressed in HEK293 cells assessed as intracellular cAMP level
pEC50: −log10 of the molar value.
pEC50 values, listed per item
measured_property: pEC50

{"compound": "O=S(=O)(c1cc2c(cc1F)OC(c1ccc(F)cc1F)(c1ccc(F)cc1F)O2)N1CCOCC1", "target_of_assay": "Cannabinoid receptor 1 (Homo sapiens)", "observed": 7.96}
{"compound": "O=C(c1cc2c(cc1F)OC(c1ccc(F)cc1)(c1ccc(F)cc1)O2)N1CCCCC1", "target_of_assay": "Cannabinoid receptor 1 (Homo sapiens)", "observed": 7.14}
{"compound": "O=C(c1cc2c(cc1F)O[C@](c1ccc(F)cc1)(c1ccc(Cl)cc1Cl)O2)N1CCOCC1", "target_of_assay": "Cannabinoid receptor 1 (Homo sapiens)", "observed": 8.10}
{"compound": "COc1ccc(C2(c3ccc(Cl)cc3Cl)Oc3cc(F)c(C(=O)N4CCCCC4)cc3O2)cc1 (stereo not given)", "target_of_assay": "Cannabinoid receptor 1 (Homo sapiens)", "observed": 8.30}
{"compound": "O=C(c1cc2c(cc1F)OC(c1ccc(F)cc1F)(c1ccc(F)cc1F)O2)N1CCC(F)(F)CC1", "target_of_assay": "Cannabinoid receptor 1 (Homo sapiens)", "observed": 8.70}

----------
experiment: Partition coefficient, log D at pH 6.5; assay type: physicochemical; settings: octanol/water
measured_property: logD

{"given_smiles": "O=C(c1cc2c(cc1F)O[C@](c1ccc(F)cc1)(c1ccc(Cl)cc1Cl)O2)N1CCOCC1", "observed": "> 4"}

----------
assay: Aqueous solubility at pH 6.5 by lyophilisation solubility assay; assay type: physicochemical

{"given_smiles": "O=C(c1cc2c(cc1F)O[C@](c1ccc(F)cc1)(c1ccc(Cl)cc1Cl)O2)N1CCOCC1", "solubility": "< 1 µg/mL"}

----------
test system: Liver microsomes; test: Clearance in rat liver microsomes; format: ADME, Microsome; details: microsomes

{"given_smiles": "O=C(c1cc2c(cc1F)O[C@](c1ccc(F)cc1)(c1ccc(Cl)cc1Cl)O2)N1CCOCC1", "clearance [µL/min/mg]": 27}

----------
Let's go through some Ki measurements on Cannabinoid receptor 1 (Homo sapiens, UniProt P21554) together.
Sequence (P21554 whole entry): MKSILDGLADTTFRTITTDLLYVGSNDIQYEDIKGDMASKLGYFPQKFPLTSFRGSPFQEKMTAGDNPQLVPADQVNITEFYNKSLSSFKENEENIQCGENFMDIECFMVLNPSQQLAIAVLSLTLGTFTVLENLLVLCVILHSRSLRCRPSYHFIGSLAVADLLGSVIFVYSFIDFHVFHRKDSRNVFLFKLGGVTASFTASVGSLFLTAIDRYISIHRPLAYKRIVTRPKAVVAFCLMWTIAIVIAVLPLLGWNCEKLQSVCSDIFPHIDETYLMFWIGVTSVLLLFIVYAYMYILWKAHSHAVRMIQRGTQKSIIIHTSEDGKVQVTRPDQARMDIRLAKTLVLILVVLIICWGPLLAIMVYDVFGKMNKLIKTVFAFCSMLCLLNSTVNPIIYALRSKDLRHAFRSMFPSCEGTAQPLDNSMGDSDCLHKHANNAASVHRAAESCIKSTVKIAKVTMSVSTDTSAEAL
measured_property: Ki

{"compound": "O=C(c1ccc2c(c1)OC(c1ccc(F)cc1)(c1ccc(Cl)cc1Cl)O2)N1CCOCC1 (centres undefined)", "observed": "0.03 µM"}
{"compound": "Cc1cc2c(cc1C(=O)N1CCOCC1)OC(c1ccccc1)(c1ccccc1)O2", "observed": "0.509 µM"}
{"compound": "O=C(c1cc2c(cc1F)OC(c1ccc(F)cc1F)(c1ccc(F)cc1F)O2)N1CCOCC1", "observed": "0.007 µM"}
{"compound": "O=C(c1cc2c(cc1F)OC(c1ccc(F)cc1)(c1ccc(F)cc1)O2)N1CCOCC1", "observed": "0.018 µM"}
{"compound": "O=C(c1cc2c(cc1F)OC(c1ccc(F)cc1)(c1ccc(Cl)cc1Cl)O2)N1CCOCC1 (centres undefined)", "observed": "0.004 µM"}
{"compound": "O=S(=O)(c1ccc2c(c1)OC(c1ccccc1)(c1ccccc1)O2)N1CC=C(c2ccc(F)cc2)CC1", "observed": "0.013 µM"}
{"compound": "O=C(c1cc2c(cc1F)OC(c1ccccc1)(c1ccccc1)O2)N1CCCCC1", "observed": "0.011 µM"}
{"compound": "O=C(CC(c1ccccc1)c1ccccc1)N1CC=C(c2ccc(Cl)cc2)CC1", "observed": "1.5 µM"}
{"compound": "O=C(c1cc2c(cc1F)OC(c1ccccc1)(c1ccccc1)O2)N1CCOCC1", "observed": "0.015 µM"}
{"compound": "O=C(c1cc2c(cc1F)OC(c1ccccc1F)(c1ccc(Cl)cc1Cl)O2)N1CCOCC1 (centres undefined)", "observed": "0.004 µM"}
{"compound": "O=C(c1cc2c(cn1)OC(c1ccccc1)(c1ccccc1)O2)N1CCCCC1", "observed": "0.013 µM"}
{"compound": "CCCCCn1cc(C(=O)c2ccc3ccccc3c2)c2ccc(S(C)(=O)=O)cc21", "observed": "0.11 µM"}
{"compound": "O=S(=O)(c1ccc2c(c1)OC(c1ccccc1)(c1ccccc1)O2)N1CCCCC1", "observed": "0.038 µM"}
{"compound": "O=C(c1cc2c(cc1F)OC(c1ccc(F)cc1F)(c1ccc(F)cc1F)O2)N1CCCCC1", "observed": "0.001 µM"}
{"compound": "O=C(c1cc2c(cc1F)OC(c1ccc(F)cc1)(c1ccc(F)cc1)O2)N1CCCCC1", "observed": "0.007 µM"}
{"compound": "O=C(c1cc2c(cc1F)OC(c1ccc(F)cc1F)(c1ccc(F)cc1F)O2)N1CCC(F)(F)CC1", "observed": "0.006 µM"}
{"compound": "O=S(=O)(c1cc2c(cc1F)OC(c1ccc(F)cc1F)(c1ccc(F)cc1F)O2)N1CCC(F)(F)CC1", "observed": "0.003 µM"}
{"compound": "COc1ccc(C2(c3ccc(Cl)cc3Cl)Oc3cc(F)c(C(=O)N4CCCCC4)cc3O2)cc1 (centres undefined)", "observed": "0.002 µM"}
{"compound": "O=C(c1cc2c(cc1F)O[C@@](c1ccc(F)cc1)(c1ccc(Cl)cc1Cl)O2)N1CCOCC1", "observed": "0.035 µM"}

----------
target: UniProt P21554; test: Activity at human CB1R expressed in HEK293 cells assessed as intracellular cAMP level
Binary label based on EC50 with cut-off 10 nM: below gives true (1), not below gives false (0).

{"molecule": "O=C(c1cc2c(cc1F)OC(c1ccc(F)cc1F)(c1ccc(F)cc1F)O2)N1CCOCC1", "assigned_label": "true (1)"}
{"molecule": "O=C(c1cc2c(cc1F)OC(c1ccc(F)cc1)(c1ccc(Cl)cc1Cl)O2)N1CCCCC1 (stereo unspecified)", "assigned_label": "true (1)"}
{"molecule": "O=C(c1cc2c(cc1F)OC(c1ccccc1F)(c1ccc(Cl)cc1Cl)O2)N1CCOCC1 (stereo unspecified)", "assigned_label": "true (1)"}
{"molecule": "O=C(c1ccc2c(c1)OC(c1ccccc1)(c1ccccc1)O2)N1CCOCC1", "assigned_label": "false (0)"}
{"molecule": "O=C(c1cc2c(cc1F)OC(c1ccccc1)(c1ccccc1)O2)N1CCCCC1", "assigned_label": "true (1)"}
{"molecule": "O=S(=O)(c1cc2c(cc1F)OC(c1ccc(F)cc1)(c1ccc(Cl)cc1Cl)O2)N1CCOCC1 (stereo unspecified)", "assigned_label": "true (1)"}
{"molecule": "O=C(c1ccc2c(c1)OC(c1ccc(F)cc1)(c1ccc(Cl)cc1Cl)O2)N1CCOCC1 (stereo unspecified)", "assigned_label": "false (0)"}
{"molecule": "O=S(=O)(c1cc2c(cc1F)OC(c1ccc(F)cc1F)(c1ccc(F)cc1F)O2)N1CCC(F)(F)CC1", "assigned_label": "true (1)"}
{"molecule": "O=C(c1cc2c(cc1F)OC(c1ccccc1)(c1ccccc1)O2)N1CCOCC1", "assigned_label": "false (0)"}
{"molecule": "O=C(c1cc2c(cc1F)OC(c1ccc(F)cc1)(c1ccc(Cl)cc1Cl)O2)N1CCOCC1 (stereo unspecified)", "assigned_label": "false (0)"}
{"molecule": "O=C(c1cc2c(cc1F)OC(c1ccc(F)cc1F)(c1ccc(F)cc1F)O2)N1CCCCC1", "assigned_label": "true (1)"}
